Target: Rho-MatB (Rhodopseudomonas palustris, UniProt Q6ND88, C106A/K488A/Q457C/R286C)
Sequence (Q6ND88 1-503 C106A/R286C/Q457C/K488A): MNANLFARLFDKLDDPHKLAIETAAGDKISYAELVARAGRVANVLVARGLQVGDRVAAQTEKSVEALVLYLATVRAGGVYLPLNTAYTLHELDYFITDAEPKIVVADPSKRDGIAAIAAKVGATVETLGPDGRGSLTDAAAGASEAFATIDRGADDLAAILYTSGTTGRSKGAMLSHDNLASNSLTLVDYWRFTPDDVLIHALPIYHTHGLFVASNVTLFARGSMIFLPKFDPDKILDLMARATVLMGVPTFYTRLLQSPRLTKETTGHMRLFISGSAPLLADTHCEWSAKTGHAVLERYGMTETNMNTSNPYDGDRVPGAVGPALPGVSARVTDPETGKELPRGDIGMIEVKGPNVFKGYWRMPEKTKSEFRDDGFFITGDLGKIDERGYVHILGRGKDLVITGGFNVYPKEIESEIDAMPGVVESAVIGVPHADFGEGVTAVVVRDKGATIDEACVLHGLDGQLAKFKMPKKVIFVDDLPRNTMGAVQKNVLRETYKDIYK
Test: Fluorescence titration of nucleotides to Rho-MatB
quantity: Kd (µM)

* Nc1ncnc2c1ncn2[C@@H]1O[C@H](CO[P@](=O)(O)O[P@](=O)(O)O[P@@](=O)(O)S)[C@@H](O)[C@H]1O [ATPγS, adenosine 5′-(γ-thio)triphosphate] | 16.2

Cited source: paper PMC4655421
